- Test system: HCV replicon in Huh7 cells
- procedure.text: HCV replicon cell-based assay
- Parameters: species or system HCV strain 1B
- condition.details: Hepatitis C virus, Huh-7; HCV replicon, Huh7 cells; read-out: EC50 range
- Procedure: HCV Replicon Cell-based Assay This system enabled us to evaluate the effects of our HCV Protease compounds on HCV RNA replication. […] Huh7 cells, constitutively expressing the HCV replicon, were grown in Dulbecco's Modified Eagle Media (DMEM) containing 10% Fetal calf serum (FCS) and 1 mg/ml G418 (Gibco-BRL). […] The plate was then placed into the Cytofluor 4000 instrument which had been set to 340 nm excitation/490 emission, automatic mode for 21 cycles and the plate read in a kinetic mode. […]
measure.name: EC50

Lab entry: HCV replicon in Huh7 cells assay, compound C=CC1C[C@]1(NC(=O)[C@@H]1C[C@@H](Oc2nccc3occc23)CN1C(=O)[C@@H](NC(=O)OC(C)(C)C)C(C)(C)C)C(=O)NS(=O)(=O)C1CC1 (some centres unmarked) [Compound 233] , EC50 = 100 to 1000 nM

Lab entry: HCV replicon in Huh7 cells assay, compound C=CC1CC1(NC(=O)C1CC(Oc2nc(Br)c(OCOCC[Si](C)(C)C)c3ccccc23)CN1C(=O)C(NC(=O)OC(C)(C)C)C(C)(C)C)C(=O)NS(=O)(=O)C1CC1 (centres unmarked) [Compound 225] , EC50 = 100 to 1000 nM

Lab entry: HCV replicon in Huh7 cells assay, compound C=C[C@@H]1C[C@]1(NC(=O)[C@@H]1C[C@@H](Oc2cc(C)nc(-c3ccccc3)c2)CN1C(=O)[C@@H](NC(=O)OC(C)(C)C)C(C)(C)C)C(=O)NS(=O)(=O)C1CC1 [Compound 437] , EC50 = 100 to 1000 nM

Lab entry: HCV replicon in Huh7 cells assay, compound CC[C@@H]1C[C@]1(NC(=O)[C@@H]1C[C@@H](Oc2nccc3ccc(C)cc23)CN1C(=O)[C@@H](NC(=O)OC(C)(C)C)C(C)(C)C)C(=O)NS(=O)(=O)C1CC1 [Compound 296] , EC50 = 100 to 1000 nM

Lab entry: HCV replicon in Huh7 cells assay, compound C=C[C@@H]1C[C@]1(NC(=O)[C@@H]1C[C@@H](Oc2cc(C(F)(F)F)nc3ccc(C)cc23)CN1C(=O)[C@@H](NC(=O)OC(C)(C)C)C(C)(C)C)C(=O)NS(=O)(=O)C1CC1 [Compound 410] , EC50 = < 100 nM

====

Answer each item with its documented EC50.
- Test system: HCV replicon in Huh7 cells
- procedure.text: HCV replicon cell-based assay
- Set-up: species or system HCV strain 1B
- condition.details: Hepatitis C virus, Huh-7; HCV replicon, Huh7 cells; read-out: EC50 range

Item: C=C[C@@H]1C[C@]1(NC(=O)[C@@H]1CC(Oc2nccc3cc(OC)ccc23)CN1C(=O)[C@@H](NC(=O)NC(C)(C)Cc1ccc(F)cc1)C(C)(C)C)C(=O)NS(=O)(=O)C1CC1 (stereo partly drawn) | EC50: 100 to 1000 nM

Item: C=CC1C[C@]1(NC(=O)[C@@H]1C[C@@H](Oc2nccc3cc(OC(C)(C)C)ccc23)CN1C(=O)[C@@H](NC(=O)OC(C)(C)C)C(C)(C)C)C(=O)NS(=O)(=O)C1CC1 (stereo partly drawn) | EC50: 100 to 1000 nM

Item: C=C[C@@H]1C[C@]1(NC(=O)[C@@H]1C[C@@H](Oc2nc(Cl)cc3ccccc23)CN1C(=O)[C@@H](NC(=O)OC(C)(C)C)C(C)(C)C)C(=O)NS(=O)(=O)C1CC1 | EC50: < 100 nM

====

- tested.system: HCV NS3/4A protease complex, BMS strain (UniProt P27958, C1454S/C1711G, species not given/STRAIN_BMS)
- procedure.text: Recombinant HCV NS3/4A protease complex FRET peptide assay (BMS strain)
- Assay type: biochemical, HCV genotype 1a
- condition.details: NS3/4A BMS strain; read-out: IC50 range
pIC50: −log10 of the molar value.
Answer each item with its documented pIC50.

Item: C=CC1CC1(NC(=O)[C@@H]1C[C@@H](OCc2ccc3ccccc3c2)CN1C(=O)[C@@H](NC(=O)OC(C)(C)C)C(C)(C)C)C(=O)NS(C)(=O)=O (stereo partly drawn) | pIC50: 6.00 to 7.00

Item: C=C[C@@H]1C[C@]1(NC(=O)[C@@H]1C[C@@H](Oc2nccc3cc(OC)ccc23)CN1C(=O)[C@@H](NC(=O)OC(C)(C)C(F)(F)F)[C@H](C)OC)C(=O)NS(=O)(=O)C1CC1 | pIC50: > 7.00

Item: C=CC1C[C@]1(NC(=O)[C@@H]1C[C@@H](Oc2nccc3c(SCCC)c(OCC)ccc23)CN1C(=O)[C@@H](NC(=O)OC(C)(C)C)C(C)(C)C)C(=O)NS(=O)(=O)C1CC1 (stereo partly drawn) | pIC50: > 7.00

====

Answer each item with its documented pIC50.
- tested.system: HCV NS3/4A protease complex, BMS strain (UniProt P27958, C1454S/C1711G, species not given/STRAIN_BMS)
- procedure.text: Recombinant HCV NS3/4A protease complex FRET peptide assay (BMS strain)
- Format: biochemical, HCV genotype 1a
- condition.details: NS3/4A BMS strain; read-out: IC50 range
pIC50: −log10 of the molar value.

Item: C=CC1C[C@]1(NC(=O)[C@@H]1C[C@@H](Oc2nccc3cc(CC)ccc23)CN1C(=O)[C@@H](NC(=O)OC(C)(C)C)C(C)(C)C)C(=O)NS(=O)(=O)C1CC1 (stereo partly shown) | pIC50: > 7.00

Item: C=C[C@@H]1C[C@]1(NC(=O)[C@@H]1C[C@@H](Oc2nccc3cc(OC(F)(F)F)ccc23)CN1C(=O)[C@@H](NC(=O)OC(C)(C)C)C(C)(C)C)C(=O)NS(=O)(=O)C1CC1 | pIC50: > 7.00

Item: CC[C@@H]1C[C@]1(NC(=O)[C@@H]1C[C@@H](Oc2nccc3cc(OC)ccc23)CN1C(=O)[C@@H](NC(=O)OC(C)(C)C)C(C)(C)C)C(=O)NS(=O)(=O)C(C)C | pIC50: 6.00 to 7.00

Item: C=C[C@@H]1C[C@]1(NC(=O)[C@@H]1C[C@@H](Oc2cc(C)nc(-c3ccccc3)c2)CN1C(=O)[C@@H](NC(=O)OC(C)(C)C)C(C)(C)C)C(=O)NS(=O)(=O)C1CC1 | pIC50: > 7.00

Item: C=C[C@@H]1C[C@]1(NC(=O)[C@@H]1C[C@@H](Oc2nccc3cc(OC)ccc23)CN1C(=O)[C@@H](NC(=O)OC(C)(C)C)C(C)(C)C)C(=O)NS(=O)(=O)C1CC1 | pIC50: > 7.00

Item: C=C[C@@H]1C[C@]1(NC(=O)[C@@H]1C[C@@H](Oc2nc(-c3cc(OC)no3)cc3cc(OC)ccc23)CN1C(=O)[C@@H](NC(=O)OC(C)(C)C)C(C)(C)C)C(=O)NS(=O)(=O)C1CC1 | pIC50: > 7.00

Item: C=C[C@@H]1C[C@]1(NC(=O)[C@@H]1C[C@@H](Oc2nc(-c3ccco3)c(OC)c3ccccc23)CN1C(=O)[C@@H](NC(=O)OC(C)(C)C)C(C)(C)C)C(=O)NS(=O)(=O)C1CC1 | pIC50: 6.00 to 7.00

Item: C=C[C@@H]1C[C@]1(NC(=O)[C@@H]1C[C@@H](Oc2nccc3cc(OC)ccc23)CN1C(=O)[C@@H](NC(=O)OC(C)(C)C)[C@H](C)OC)C(=O)NS(=O)(=O)C1CC1 | pIC50: > 7.00

Item: C=C[C@@H]1C[C@]1(NC(=O)[C@@H]1C[C@@H](Oc2cc(-c3cccc(OC)c3)nc3c(C)noc23)CN1C(=O)[C@@H](NC(=O)OC(C)(C)C)C(C)(C)C)C(=O)NS(=O)(=O)C1CC1 | pIC50: > 7.00

Item: C=CC1C[C@]1(NC(=O)[C@@H]1C[C@@H](Oc2nnc(OC)c3ccccc23)CN1C(=O)[C@@H](NC(=O)OC(C)(C)C)C(C)(C)C)C(=O)NS(=O)(=O)C1CC1 (stereo partly shown) | pIC50: > 7.00

Item: C=CCCCCC[C@H](NC(=O)OC(C)(C)C)C(=O)N1C[C@H](Oc2ccnc3cc(OC)ccc23)C[C@H]1C(=O)N[C@]1(C(=O)NS(=O)(=O)C2CC2)C[C@H]1C=C | pIC50: > 7.00

Item: C=CC1C[C@]1(NC(=O)[C@@H]1C[C@@H](Oc2cc(C(F)(F)F)nc3ccccc23)CN1C(=O)[C@@H](NC(=O)OC(C)(C)C)C(C)(C)C)C(=O)NS(=O)(=O)C1CC1 (stereo partly shown) | pIC50: > 7.00

Item: C=C[C@@H]1C[C@]1(NC(=O)[C@@H]1C[C@@H](Oc2nccc3cc(OC)ccc23)CN1C(=O)[C@@H](NC(=O)OC(C)(C)CC)C(C)(C)C)C(=O)NS(=O)(=O)C1CCC1 | pIC50: > 7.00

Item: C=C[C@@H]1C[C@]1(NC(=O)[C@@H]1C[C@@H](Oc2nccc3cc(OC)ccc23)CN1C(=O)[C@@H](NC(=O)OC(C)(C)C)[C@H](C)CC)C(=O)NS(=O)(=O)C1CC1 | pIC50: > 7.00

Item: CC[C@@H]1C[C@]1(NC(=O)[C@@H]1C[C@@H](Oc2nccc3c(C)cccc23)CN1C(=O)[C@@H](NC(=O)OC(C)(C)C)C(C)(C)C)C(=O)NS(=O)(=O)C1CC1 | pIC50: > 7.00

Item: C=C[C@@H]1C[C@]1(NC(=O)[C@@H]1C[C@@H](Oc2nccc3cc(OC)c(Cl)cc23)CN1C(=O)[C@@H](NC(=O)OC(C)(C)C)C(C)(C)C)C(=O)NS(=O)(=O)C1CC1 | pIC50: > 7.00

Item: CC[C@@H]1C[C@]1(NC(=O)[C@@H]1C[C@@H](Oc2nccc3cc(OC)ccc23)CN1C(=O)[C@@H](NC(=O)OC(C)(C)C)C(C)(C)C)C(=O)NS(=O)(=O)C1CC1 | pIC50: > 7.00

Item: C=C[C@@H]1C[C@]1(NC(=O)[C@@H]1C[C@@H](Oc2nccc3ccccc23)CN1C(=O)[C@@H](NC(=O)Oc1ccccc1)C(C)(C)C)C(=O)NS(=O)(=O)C1CC1 | pIC50: > 7.00

Item: C=CC1C[C@]1(NC(=O)[C@@H]1C[C@@H](COc2cncc(Br)c2)CN1C(=O)[C@@H](NC(=O)OC)C(C)(C)C)C(=O)NS(=O)(=O)C1CC1 (stereo partly shown) | pIC50: 5.00 to 6.00
